Some molecules, each annotated with its measured inhibition at 0.111 µM.
- Tgt: recombinant human SAE enzyme (Homo sapiens)
- Experimental protocol: SAE HTRF Enzyme Assay
- Format: biochemical
- Condition set: compound concentration 0.111 μM; read-out: Percent Inhibition
Write the number in % without appending the unit.

Guide cases for inhibition at 0.111 µM, answers given:
Short answer for N#Cc1ccccc1Cn1ccc(C(=O)c2cncnc2N[C@@H]2C[C@H](COS(N)(=O)=O)[C@@H](O)[C@H]2O)n1 [Compound I-249] : inhibition at 0.111 µM was 97

Entry Cc1cc(C(=O)c2cncnc2N[C@@H]2C[C@@H](COS(N)(=O)=O)[C@@H](O)C2)nn1Cc1cccc(Br)c1 [Compound I-6] ; inhibition at 0.111 µM = 99

More entries:
Value of measured inhibition at 0.111 µM for the entry C=CC(=O)N(C)c1cccc(Cn2ccc(C(=O)c3cncnc3N[C@@H]3C[C@H](COS(N)(=O)=O)[C@@H](O)[C@@H]3F)n2)c1 [Compound I-116] : 33

====

- Tgt: recombinant human SAE enzyme (Homo sapiens, UniProt Q9UBT2)
- Experimental protocol: SAE HTRF Enzyme Assay
- Condition set: class symbols A-C
Result type: IC50

Recorded IC50, per entry:
Value of measured IC50 for the entry NS(=O)(=O)OC[C@H]1C[C@@H](Nc2ncncc2C(=O)c2ccn(Cc3ccc(C(F)(F)F)o3)n2)C[C@@H]1O [Compound I-163] : < 10 nM

Input NS(=O)(=O)OC[C@@H]1C[C@@H](Nc2ncncc2C(=O)c2ccn(Cc3ccccc3)n2)C[C@@H]1O [Compound I-342] . Output IC50: 10 to 100 nM

The recorded IC50 for NS(=O)(=O)OC[C@H]1C[C@@H](Nc2ncncc2C(=O)c2ccn(Cc3ccc(Cl)c(OC(F)(F)F)c3)n2)[C@@H](F)[C@@H]1O [Compound I-218] is 10 to 100 nM

---
IC50 in this record for NS(=O)(=O)OC[C@H]1C[C@@H](Nc2ncncc2C(=O)c2ccn(Cc3ccc(C(F)(F)F)cc3)n2)C[C@@H]1O [Compound I-171] : < 10 nM

IC50 in this record for NS(=O)(=O)OC[C@H]1C[C@@H](Nc2ncncc2C(=O)c2ccn(Cc3cc(C(F)(F)F)cc(C(F)(F)F)c3)n2)[C@H](O)[C@@H]1O [Compound I-155] : < 10 nM

Lookup result for NS(=O)(=O)OC[C@H]1C[C@@H](Nc2ncncc2C(=O)c2ccn(Cc3cccc(C(F)(F)F)c3)c2)[C@@H](F)[C@@H]1O [Compound I-7] ; measured IC50: < 10 nM

====

- Tgt: recombinant human SAE enzyme (Homo sapiens, UniProt Q9UBT2)
- Sequence (Q9UBT2 1-640): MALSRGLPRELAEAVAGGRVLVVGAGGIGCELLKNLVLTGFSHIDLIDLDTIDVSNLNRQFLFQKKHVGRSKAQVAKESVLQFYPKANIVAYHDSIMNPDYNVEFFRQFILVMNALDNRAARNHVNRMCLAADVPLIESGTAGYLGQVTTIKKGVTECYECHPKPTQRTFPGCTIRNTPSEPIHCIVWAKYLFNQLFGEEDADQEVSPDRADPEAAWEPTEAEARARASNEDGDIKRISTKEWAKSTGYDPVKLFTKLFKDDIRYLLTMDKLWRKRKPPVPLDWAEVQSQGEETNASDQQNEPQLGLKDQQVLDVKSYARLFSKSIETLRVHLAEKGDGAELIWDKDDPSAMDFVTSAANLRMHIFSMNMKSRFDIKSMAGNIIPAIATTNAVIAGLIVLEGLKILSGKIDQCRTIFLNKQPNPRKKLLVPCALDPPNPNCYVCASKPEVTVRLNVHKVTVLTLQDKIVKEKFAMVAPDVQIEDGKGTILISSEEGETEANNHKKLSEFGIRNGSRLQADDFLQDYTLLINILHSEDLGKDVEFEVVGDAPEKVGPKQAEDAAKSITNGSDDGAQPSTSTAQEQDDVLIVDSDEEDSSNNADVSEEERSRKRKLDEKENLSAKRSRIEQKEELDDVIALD
- Sequence (Q9UBE0 1-346 partner): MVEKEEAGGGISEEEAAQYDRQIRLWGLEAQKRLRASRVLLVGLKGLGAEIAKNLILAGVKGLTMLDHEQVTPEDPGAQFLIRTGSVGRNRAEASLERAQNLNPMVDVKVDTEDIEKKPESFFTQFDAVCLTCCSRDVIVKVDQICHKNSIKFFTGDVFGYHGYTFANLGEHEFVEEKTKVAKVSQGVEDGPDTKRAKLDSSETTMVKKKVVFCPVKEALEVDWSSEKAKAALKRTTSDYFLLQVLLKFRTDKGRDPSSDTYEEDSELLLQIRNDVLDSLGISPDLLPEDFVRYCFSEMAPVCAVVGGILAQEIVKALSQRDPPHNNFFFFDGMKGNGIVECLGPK
- Experimental protocol: SAE HTRF Enzyme Assay
- Type: biochemical
- Condition set: compound concentration 0.111 μM; read-out: Percent Inhibition
Items are presented alongside their recorded inhibition at 0.111 µM.
Give your result in % as a bare value.

For `NS(=O)(=O)OC[C@H]1C[C@@H](Nc2ncncc2C(=O)c2ccn(Cc3ccncc3)n2)[C@H](O)[C@@H]1O` the molecule record lists inhibition at 0.111 µM as 81

Lab book: inhibition at 0.111 µM of `NS(=O)(=O)OC[C@H]1C[C@@H](Nc2ncncc2C(=O)c2ccn(Cc3ccc(C(F)(F)F)o3)n2)C[C@@H]1O` noted as 98

Reported inhibition at 0.111 µM ( `NS(=O)(=O)OC[C@H]1C[C@@H](Nc2ncncc2C(=O)c2ccn(Cc3ccc(F)c(OC(F)(F)F)c3)c2)C[C@@H]1O` ) = 97

Note to self: inhibition at 0.111 µM recorded for `NS(=O)(=O)OC[C@H]1C[C@@H](Nc2ncncc2C(=O)c2ccn(Cc3cccc(I)c3)c2)[C@@H](F)[C@@H]1O` was 100

Quick note, inhibition at 0.111 µM for `NS(=O)(=O)OC[C@H]1C[C@@H](Nc2ncncc2C(=O)c2ccn(C#Cc3ccccc3)c2)C[C@@H]1O` landed at 33

For reference, reported inhibition at 0.111 µM for `Cc1cc(C(=O)c2cncnc2N[C@@H]2C[C@H](COS(N)(=O)=O)[C@@H](O)[C@@H]2F)nn1Cc1ccc(C(F)(F)F)o1` stands at 99

The molecule listed as `NS(=O)(=O)OC[C@@H]1C[C@@H](Nc2ncncc2C(=O)c2ccn(Cc3cccc(Br)c3)c2)C[C@@H]1O` has a reported inhibition at 0.111 µM of 99

The molecule identified as `NS(=O)(=O)OC[C@H]1C[C@@H](Nc2ccncc2C(=O)c2ccn(Cc3ccc(Cl)c(C(F)(F)F)c3)n2)C[C@@H]1O` registered its inhibition at 0.111 µM at 93

Reported inhibition at 0.111 µM ( `NS(=O)(=O)OC[C@H]1C[C@@H](Nc2ncncc2C(=O)c2ccn(Cc3cc(F)cc(C(F)(F)F)c3)c2)C[C@@H]1O` ) = 97

The molecule identified as `NS(=O)(=O)OC[C@H]1C[C@@H](Nc2ncncc2C(=O)c2ccn(Cc3ccccc3)n2)[C@@H](O)[C@@H]1O` registered its inhibition at 0.111 µM at 81

---
Value of measured inhibition at 0.111 µM for the entry `NS(=O)(=O)OC[C@H]1C[C@@H](Nc2ncncc2C(=O)c2ccn(Cc3cccc(Br)c3)c2)C[C@@H]1O` : 99

Record `NS(=O)(=O)OC[C@H]1C[C@@H](Nc2ncncc2C(=O)c2ccn(Cc3cc(F)ccc3F)n2)C[C@@H]1O` . Reported inhibition at 0.111 µM: 95

Record summary for `NS(=O)(=O)OC[C@H]1C[C@@H](Nc2ncncc2C(=O)c2ccn(Cc3cccc(C(F)(F)F)n3)n2)C[C@@H]1O` : reported inhibition at 0.111 µM = 98

Recorded values, source patent US9695154B2.
